Target: human glucagon receptor (Homo sapiens, UniProt P47871)
Construct: expressed in transfected cells; host or cells: BHK (baby hamster kidney) cells, membrane preparation
Sequence (P47871 26-477): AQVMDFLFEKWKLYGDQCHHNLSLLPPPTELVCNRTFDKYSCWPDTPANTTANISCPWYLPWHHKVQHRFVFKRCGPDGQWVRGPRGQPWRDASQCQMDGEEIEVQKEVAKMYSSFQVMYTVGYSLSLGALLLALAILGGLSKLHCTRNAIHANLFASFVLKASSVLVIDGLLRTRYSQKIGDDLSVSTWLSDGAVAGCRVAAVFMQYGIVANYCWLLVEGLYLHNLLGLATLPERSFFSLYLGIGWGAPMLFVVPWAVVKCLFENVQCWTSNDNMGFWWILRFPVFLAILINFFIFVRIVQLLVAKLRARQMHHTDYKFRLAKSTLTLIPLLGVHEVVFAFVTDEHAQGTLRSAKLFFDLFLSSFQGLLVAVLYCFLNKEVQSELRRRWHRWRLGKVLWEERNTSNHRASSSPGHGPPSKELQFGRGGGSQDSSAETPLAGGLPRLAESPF
Experiment: Glucagon Binding Assay (II)
Conditions: membranes of BHK cells transfected with human glucagon receptor, 125I-glucagon, SPA; read-out: Glu Bd Assay (II) IC50
Experimental: Glucagon Binding Assay (II) BHK (baby hamster kidney cell line) cells are transfected with the human glucagon receptor and a membrane preparation of the cells is prepared. All steps in the membrane preparation are kept on ice or performed at 4° C. BHK cells are harvested and centrifuged. […] The glucagon binding assay is carried out in opti plates (Polystyrene Microplates, Packard). […] The opti plates are counted in a Topcounter. Non-specific binding is determined with 500 nM of glucagon.
pIC50: −log10 of the molar value.
endpoint_name: pIC50

>>> observed_value("O=C(NC[C@@H](O)C(=O)O)c1ccc(CN(C(=O)Cc2ccc3ccccc3c2)c2ccc(C3CCCCC3)cc2)cc1")
6.05
>>> observed_value("Cc1cc(NC(=O)N(Cc2ccc(C(=O)NC[C@@H](O)C(=O)O)cc2)[C@H]2CC[C@H](C(C)(C)C)CC2)cc(C(F)(F)F)c1")
7.46
>>> observed_value("O=C(NC[C@@H](O)C(=O)O)c1ccc(CN(C(=O)Cc2ccc(-c3ccccc3)cc2)c2ccc(C3CCCCC3)cc2)cc1")
6.13
>>> observed_value("O=C(NC[C@H](O)C(=O)O)c1ccc(CN(C(=O)Nc2cc(Cl)cc(Cl)c2)c2ccc(C3=CCCCC3)cc2)cc1")
6.75
>>> observed_value("N#Cc1ccc(NC(=O)N(Cc2ccc(C(=O)NC[C@@H](O)C(=O)O)cc2)c2ccc(C3CCCCC3)cc2)cc1C(F)(F)F")
7.72
>>> observed_value("O=C(NC[C@@H](O)C(=O)O)c1ccc(CN(C(=O)Cc2ccc(OC(F)(F)F)cc2)c2ccc(C3CCCCC3)cc2)cc1")
6.47

* * *

Target: human GIP receptor (Homo sapiens, UniProt P48546)
Construct: expressed in transfected cells; host or cells: BHK (baby hamster kidney) cells, membrane preparation
Sequence (P48546 22-466): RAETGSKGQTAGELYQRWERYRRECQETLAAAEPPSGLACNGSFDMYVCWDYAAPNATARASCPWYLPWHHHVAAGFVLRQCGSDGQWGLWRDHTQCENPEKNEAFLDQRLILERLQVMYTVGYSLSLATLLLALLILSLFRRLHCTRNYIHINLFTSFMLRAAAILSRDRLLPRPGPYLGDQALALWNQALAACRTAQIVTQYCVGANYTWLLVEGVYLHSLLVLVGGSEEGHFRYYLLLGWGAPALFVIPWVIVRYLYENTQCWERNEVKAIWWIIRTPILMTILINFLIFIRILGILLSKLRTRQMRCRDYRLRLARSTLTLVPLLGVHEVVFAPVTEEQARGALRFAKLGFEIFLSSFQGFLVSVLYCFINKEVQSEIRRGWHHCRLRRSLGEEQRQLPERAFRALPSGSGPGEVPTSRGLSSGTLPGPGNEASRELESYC
Test: GIP Binding Assay
Conditions: membranes of BHK cells transfected with human GIP receptor, 125I-GIP, SPA; read-out: GIP Bd Assay IC50
pIC50: −log10 of the molar value.
endpoint_name: pIC50

>>> observed_value("O=C(NC[C@@H](O)C(=O)O)c1ccc(CN(C(=O)Nc2cc(Br)cc(C(F)(F)F)c2)c2ccc(C3=CCCCC3)cc2)cc1 [Example 9]")
6.55
>>> observed_value("CC(C)(C)c1ccc(N(Cc2ccc(C(=O)NC[C@@H](O)C(=O)O)cc2)C(=O)Nc2ccc(Cl)c(Cl)c2)cc1 [Example 40]")
6.10
>>> observed_value("CC(C)(C)[C@H]1CC[C@H](N(Cc2ccc(C(=O)NC[C@H](O)C(=O)O)cc2)C(=O)Nc2cc(C(F)(F)F)cc(C(F)(F)F)c2)CC1 [Example 13]")
6.15
>>> observed_value("O=C(NC[C@@H](O)C(=O)O)c1ccc(CN(C(=O)Nc2ccc(Cl)c(Cl)c2)c2ccc(C3=CCCCC3)cc2)cc1 [Example 52]")
6.47
>>> observed_value("O=C(NC[C@@H](O)C(=O)O)c1ccc(CN(C(=O)Nc2cc(Br)cc(C(F)(F)F)c2)c2ccc(C3CCCCC3)cc2)cc1 [Example 12]")
6.69
>>> observed_value("O=C(NCC(F)C(=O)O)c1ccc(CN(C(=O)Nc2cc(Cl)cc(Cl)c2)c2ccc(C3=CCCCC3)cc2)cc1 (racemic) [Example 23]")
6.29
>>> observed_value("CC(C)(C)[C@H]1CC[C@H](N(Cc2ccc(C(=O)NC[C@@H](O)C(=O)O)cc2)C(=O)Nc2cc(C(F)(F)F)cc(C(F)(F)F)c2)CC1 [Example 14]")
6.56
>>> observed_value("O=C(NC[C@@H](O)C(=O)O)c1ccc(CN(C(=O)Nc2cc(Cl)cc(Cl)c2)c2ccc(C3CCCCC3)cc2)cc1 [Example 27]")
6.59
>>> observed_value("CC(C)(C)c1ccc(N(Cc2ccc(C(=O)NCC(O)C(=O)O)cc2)C(=O)Nc2ccc(OC(F)(F)F)cc2)cc1 (racemic) [Example 16]")
6.69
>>> observed_value("O=C(NC[C@@H](O)C(=O)O)c1ccc(CN(C(=O)Nc2ccccc2)c2ccc(C3=CCCCC3)cc2)cc1 [Example 21]")
5.90
>>> observed_value("O=C(NC[C@@H](O)C(=O)O)c1ccc(CN(C(=O)Nc2cccc(C(F)(F)F)c2)c2ccc(C3CCCCC3)cc2)cc1 [Example 5]")
6.28
>>> observed_value("O=C(NC[C@@H](O)C(=O)O)c1ccc(CN(C(=O)Nc2ccc(Cl)c(Cl)c2)c2ccc(C3CCCCC3)cc2)cc1 [Example 42]")
6.47
>>> observed_value("O=C(NC[C@@H](O)C(=O)O)c1ccc(CN(C(=O)Nc2ccc3c(c2)C(F)(F)OC(F)(F)O3)c2ccc(C3=CCCCC3)cc2)cc1 [Example 30]")
6.66
>>> observed_value("CC(C)(C)c1cccc(NC(=O)N(Cc2ccc(C(=O)NC[C@@H](O)C(=O)O)cc2)c2ccc(C3CCCCC3)cc2)c1 [Example 38]")
6.66
>>> observed_value("CSc1cccc(NC(=O)N(Cc2ccc(C(=O)NC[C@@H](O)C(=O)O)cc2)c2ccc(C3CCCCC3)cc2)c1 [Example 29]")
6.21
>>> observed_value("C[C@H](NC(=O)N(Cc1ccc(C(=O)NC[C@@H](O)C(=O)O)cc1)c1ccc(C2CCCCC2)cc1)c1ccc(Cl)cc1 [Example 35]")
6.36
>>> observed_value("Cc1cc(NC(=O)N(Cc2ccc(C(=O)NC[C@@H](O)C(=O)O)cc2)[C@H]2CC[C@H](C(C)(C)C)CC2)cc(C(F)(F)F)c1 [Example 15]")
6.40
>>> observed_value("CS(=O)(=O)c1cc(NC(=O)N(Cc2ccc(C(=O)NC[C@@H](O)C(=O)O)cc2)c2ccc(C3=CCCCC3)cc2)ccc1OC(F)(F)F [Example 25]")
6.33
>>> observed_value("O=C(NC[C@@H](O)C(=O)O)c1ccc(CN(C(=O)Nc2ccc(OC(F)(F)F)cc2)c2ccc(C3CCCCC3)cc2)cc1 [Example 4]")
6.91

* * *

Biological target: human glucagon receptor (Homo sapiens, UniProt P47871)
Construct: expressed in transfected cells; host or cells: BHK (baby hamster kidney) cells, membrane preparation
Assay: Glucagon Binding Assay (II)
Conditions: membranes of BHK cells transfected with human glucagon receptor, 125I-glucagon, SPA; read-out: Glu Bd Assay (II) IC50
Known IC50 of a selection of molecules
endpoint_name: IC50 (nM)

>>> observed_value("COc1cc(NC(=O)N(Cc2ccc(C(=O)NC[C@@H](O)C(=O)O)cc2)c2ccc(C3=CCCCC3)cc2)cc(C(F)(F)F)c1")
19
>>> observed_value("CC(=O)c1ccc(NC(=O)N(Cc2ccc(C(=O)NC[C@@H](O)C(=O)O)cc2)c2ccc(C3CCCCC3)cc2)cc1")
390
>>> observed_value("CC(C)(C)c1ccc(N(Cc2ccc(C(=O)NCC(O)C(=O)O)cc2)C(=O)Nc2ccc(OC(F)(F)F)cc2)cc1 (racemic)")
61

* * *

Target: human GIP receptor (Homo sapiens, UniProt P48546)
Construct: expressed in transfected cells; host or cells: BHK (baby hamster kidney) cells, membrane preparation
Test: GIP Binding Assay
Conditions: membranes of BHK cells transfected with human GIP receptor, 125I-GIP, SPA; read-out: GIP Bd Assay IC50
Known IC50 of a selection of compounds
endpoint_name: IC50 (µM)

>>> observed_value("COc1cc(NC(=O)N(Cc2ccc(C(=O)NC[C@@H](O)C(=O)O)cc2)c2ccc(C3CCCCC3)cc2)cc(C(F)(F)F)c1 [Example 1]")
0.701
>>> observed_value("O=C(NC[C@@H](O)C(=O)O)c1ccc(CN(C(=O)Nc2cc(F)cc(C(F)(F)F)c2)c2ccc(C3CCCCC3)cc2)cc1 [Example 6]")
0.294

* * *

Molecular target: human glucagon receptor (Homo sapiens)
Construct: expressed in transfected cells; host or cells: BHK (baby hamster kidney) cells, membrane preparation
Test: Glucagon Binding Assay (II)
Settings: membranes of BHK cells transfected with human glucagon receptor, 125I-glucagon, SPA; read-out: Glu Bd Assay (II) IC50
endpoint_name: IC50

>>> observed_value("O=C(NC[C@@H](O)C(=O)O)c1ccc(CN(C(=O)Nc2ccc(Cl)c(Cl)c2)c2ccc(C3=CCCCC3)cc2)cc1")
"47 nM"
>>> observed_value("O=C(NC[C@@H](O)C(=O)O)c1ccc(CN(CC(c2ccccc2)c2ccccc2)C(=O)c2csc3ccc(Cl)cc23)cc1")
"594 nM"
>>> observed_value("O=C(NC[C@@H](O)C(=O)O)c1ccc(CN(C(=O)Nc2cc(F)cc(C(F)(F)F)c2)c2ccc(C3CCCCC3)cc2)cc1")
"10 nM"
>>> observed_value("CC(C)(C)C1CCC(N(Cc2ccc(C(=O)NC[C@@H](O)C(=O)O)cc2)C(=O)Nc2ccc3c(c2)C(F)(F)OC(F)(F)O3)CC1 (stereo partly drawn)")
"61 nM"
>>> observed_value("O=C(NC[C@@H](O)C(=O)O)c1ccc(CN(C(=O)Nc2cccc(Br)c2)c2ccc(C3=CCCCC3)cc2)cc1")
"41 nM"
>>> observed_value("O=C(NC[C@@H](O)C(=O)O)c1ccc(CN(C(=O)Nc2cccc(Cl)c2)c2ccc(C3=CCCCC3)cc2)cc1")
"52 nM"
>>> observed_value("N#Cc1cc(NC(=O)N(Cc2ccc(C(=O)NC[C@@H](O)C(=O)O)cc2)c2ccc(C3=CCCCC3)cc2)cc(C(F)(F)F)c1")
"26 nM"
>>> observed_value("CC(C)(C)C1CCC(N(Cc2ccc(C(=O)NC[C@@H](O)C(=O)O)cc2)C(=O)c2csc3ccc(Cl)cc23)CC1 (stereo partly drawn)")
"754 nM"
>>> observed_value("COc1cc(NC(=O)N(Cc2ccc(C(=O)NC[C@@H](O)C(=O)O)cc2)c2ccc(C3CCCCC3)cc2)cc(C(F)(F)F)c1")
"29 nM"
>>> observed_value("O=C(NC[C@@H](O)C(=O)O)c1ccc(CN(C(=O)Nc2ccc3c(c2)C(F)(F)OC(F)(F)O3)c2ccc(C3=CCCCC3)cc2)cc1")
"13 nM"
>>> observed_value("Cc1cc(C)cc(NC(=O)N(Cc2ccc(C(=O)NC[C@@H](O)C(=O)O)cc2)[C@H]2CC[C@H](C(C)(C)C)CC2)c1")
"92 nM"
>>> observed_value("O=C(NC[C@@H](O)C(=O)O)c1ccc(CN(C(=O)Cc2cccc(Br)c2)c2ccc(C3CCCCC3)cc2)cc1")
"430 nM"
>>> observed_value("O=C(NC[C@@H](O)C(=O)O)c1ccc(CN(C(=O)CCc2cccc([N+](=O)[O-])c2)c2ccc(C3CCCCC3)cc2)cc1")
"680 nM"
>>> observed_value("CO[C@H](CNC(=O)c1ccc(CN(C(=O)Nc2cc(Cl)cc(Cl)c2)c2ccc(C3=CCCCC3)cc2)cc1)C(=O)O")
"917 nM"
>>> observed_value("O=C(NC[C@@H](O)C(=O)O)c1ccc(CN(C(=O)CCc2cc(C(F)(F)F)cc(C(F)(F)F)c2)c2ccc(C3CCCCC3)cc2)cc1")
"542 nM"
